Hello, the source for this data is the RNAGym collection of RNA variant scans (doi:10.7554/elife.90254), in case you need it.

Kindly state self-cleavage for each of the entries shown.
B1: LINE1-full (parent)
chain: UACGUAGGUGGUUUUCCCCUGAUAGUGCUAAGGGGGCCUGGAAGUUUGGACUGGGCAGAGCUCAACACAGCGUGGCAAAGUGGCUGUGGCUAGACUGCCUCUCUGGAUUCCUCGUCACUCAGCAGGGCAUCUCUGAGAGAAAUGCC

- Variants of: B1
- experiment: self-cleavage, relative activity (ratio to wild type); higher = more cleavage; in vitro, sequencing; the parent is a self-cleaving ribozyme
Numbers only.

mutantLabel: G40C A42G
self-cleavage: 1.09
--
mutantLabel: C123U A129G
self-cleavage: 1.37
--
mutantLabel: U47C A57G
self-cleavage: 1.54
--
mutantLabel: U15C U73A
self-cleavage: 1.68
--
mutantLabel: G33A C56U
self-cleavage: 0.35

Would you mind listing self-cleavage for each of the following variants?
1. U9G U14C
2. G36C G74U

0.68
1.21
